Catalogue of Ki readings, one per entry.
Molecular target: Muscarinic acetylcholine receptor M5 (Homo sapiens)
Sequence (P08912 whole entry): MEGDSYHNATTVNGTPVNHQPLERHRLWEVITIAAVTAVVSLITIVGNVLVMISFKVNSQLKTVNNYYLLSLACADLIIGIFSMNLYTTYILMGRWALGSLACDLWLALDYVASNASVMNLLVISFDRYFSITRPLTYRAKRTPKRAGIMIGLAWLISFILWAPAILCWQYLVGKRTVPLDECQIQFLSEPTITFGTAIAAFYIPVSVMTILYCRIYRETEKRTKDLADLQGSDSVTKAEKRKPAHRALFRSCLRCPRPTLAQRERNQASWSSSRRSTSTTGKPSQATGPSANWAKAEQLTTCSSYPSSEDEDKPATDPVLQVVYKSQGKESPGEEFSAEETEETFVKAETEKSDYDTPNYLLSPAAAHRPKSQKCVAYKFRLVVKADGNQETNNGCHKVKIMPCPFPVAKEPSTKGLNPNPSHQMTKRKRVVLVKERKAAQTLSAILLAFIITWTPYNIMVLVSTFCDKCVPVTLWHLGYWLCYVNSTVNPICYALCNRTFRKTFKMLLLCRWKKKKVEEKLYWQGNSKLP
Assay: Displacement of [3H]4-DAMP from human recombinant M5 receptor expressed in CHO cells
MEASURED QUANTITY: Ki (nM)

> print(dat)
                                   compound  bound.type  measured.result
1  C[N+]1(C)CCC(OC(=O)C(c2ccccc2)c2ccccc2)CC1 [4-DAMP]           =             0.48
2  O=S(=O)(NCCCCN1CCC(c2noc3cc(F)ccc23)CC1)c1cc2ccccc2s1           >             1000

* * *

target: Muscarinic acetylcholine receptor M1 (Homo sapiens); assay: Displacement of [3H]pirenzepine from human recombinant M1 receptor expressed in CHO cells at 1 uM; type: cell-based
MEASURED QUANTITY: inhibition (%)

> print(dat)
                         compound.structure                           subject.of.test  measured.quantity  measured.result
1  O=S(=O)(NCCCCN1CCN(c2nsc3ccccc23)CC1)c1ccc(Cl)c(Cl)c1  Muscarinic acetylcholine receptor M1 (Homo sapiens)         inhibition                7
2  Cc1c(S(=O)(=O)NCCCN2CCN(c3nsc4ccccc34)CC2)sc2ccc(F)cc12  Muscarinic acetylcholine receptor M1 (Homo sapiens)         inhibition               -8
3  O=S(=O)(NCCCCN1CCN(c2noc3ccccc23)CC1)c1cccs1  Muscarinic acetylcholine receptor M1 (Homo sapiens)         inhibition                3

* * *

target: Muscarinic acetylcholine receptor M1 (Homo sapiens); assay: Displacement of [3H]pirenzepine from human recombinant M1 receptor expressed in CHO cells at 1 uM; format: cell-based
MEASURED QUANTITY: inhibition (%)

> print(dat)
                         compound.structure  measured.quantity  measured.result
1  Cc1cccc(S(=O)(=O)NCCCCN2CCN(c3nsc4ccccc34)CC2)c1         inhibition               -4
2  O=S(=O)(NCCCN1CCN(c2nsc3ccccc23)CC1)c1ccc2cc(Cl)ccc2c1         inhibition               -7
3  O=S(=O)(NCCCN1CCN(c2noc3ccccc23)CC1)c1cc2ccccc2s1         inhibition               14
4  O=S(=O)(NCCCCN1CCC(c2noc3cc(F)ccc23)CC1)c1ccc(F)c(Cl)c1         inhibition               18
5  O=S(=O)(NCCCCN1CCC(c2noc3cc(F)ccc23)CC1)c1cccs1         inhibition               24
